Numbers sourced from the nanobody polyreactivity screen of Harvey et al. (2022).

Experiment: yeast display, Sf9 membrane polyspecificity reagent, FACS + sequencing; frameworks hold sequencing errors
PROPERTY MEASURED: polyreactivity (PSR sort gate)

[Q] Give the reported polyreactivity (PSR sort gate) for this sequence. QVQLVESGGGLVQAGGSLRLSCAASGYIFLGNAMGWYRQAPGKERELVAAISRSGGSTYYADSVKGRFTISRDNAQNTVYLQMNSLKPEDTAVYYCNRDRQKIGYTYKYDYWGQGTQVTVSS
[A] high polyreactivity

[Q] Give the reported polyreactivity (PSR sort gate) for this sequence. QVHLVESGGGLVQAGRSLPLSCAASGRIFIYNAMGWYRQAPGKERELVAAINRSGVSTHYADSVKGRFTISRDNAKNTVYLQMNSLKPEDTAVYYCARTVYGARSYDYWGQGTQVTVSS
[A] low polyreactivity

[Q] Give the reported polyreactivity (PSR sort gate) for this sequence. QVQLVESGGGLGQAGGSLRLSCAASGSIFYYYAMGWYRQAPGKERELVASITSSGGTTSYADSVKGRFTISRDNAKNTVNLQMNSLKPEDTEVYYGNAQVYRYRIGYDYWGQGTQVTVSS
[A] low polyreactivity

[Q] Give the reported polyreactivity (PSR sort gate) for this sequence. QVQLVESGGGLVQAGGSLRLSCAASGFTFDRYANGWYRQAPWKAWELVAAITRRGGSTYYADSVKGRFTISRDNAKKTVYLQMNSLKPEDTAVYYCNARTYVTVDYDYCGQGTQVTVSS
[A] high polyreactivity

Turning to the following sequence.
[Q] Give the reported polyreactivity (PSR sort gate) for this sequence. QVQLVESGGGLVQAGGSLRLSCAASGRIFYRYAMGWYRQAPGKERELVAAISTSGARTYYADSVKGRFTISRDNAKIYVYLQMNSLKPVDTAVYYCAATATVSKFGYWGQGTQVTVSS
[A] low polyreactivity

---

Assay: yeast display, Sf9 membrane polyspecificity reagent, FACS + sequencing; frameworks hold sequencing errors
PROPERTY MEASURED: polyreactivity (PSR sort gate)

# count of solved cases: 5
[Q] Give the reported polyreactivity (PSR sort gate) for this sequence. QVQLVESGGGLVQAGGSLRLSCAASGNIFRYNAMGWYRQAPGKERELVAAISSGGSTYYADSVKGRFTISRDNAKNTVYLQMNSLKPEDTAVYYCNRRRWLWQTARGDYWGQGTQVTVSS
[A] high polyreactivity

[Q] Give the reported polyreactivity (PSR sort gate) for this sequence. QVQLVDSGGGLVQAGASLRLSCAASGIIFWSYTMGWYRQAPGKERELVAAINWSGTRTYYADSVKGRFTISRDNAKNTVYLQMNSLKTEDTAVYYCNADSRYRSFDYWGQGTQVTVSS
[A] high polyreactivity

[Q] Give the reported polyreactivity (PSR sort gate) for this sequence. QVQLVESGGGLVQAGGSLRLSCAASGSIFHPYGMGWYRQAPGKERELVAAITSSGGDTYYADSVKGRFTFSRDIAKNTVYLQMISLKPEDTAVYYCAATGLPGYYAYDYWGQGTQVTVSS
[A] low polyreactivity

[Q] Give the reported polyreactivity (PSR sort gate) for this sequence. QVQLVESGGGLVQAGGSLRLSFAASGRTFEKYAMGWYRQAPGKERELVAAISGSGGSTFYADSVKGRFTISRDIAKYTVYLQMISLKPEDSAVYYCAADSRSHPGDYWGQGTQVTVSS
[A] low polyreactivity

[Q] Give the reported polyreactivity (PSR sort gate) for this sequence. QVQLVESGGGLVQAGGSLRLSCAASGSIFQRYAMGWYRQAPGKEREFVAAISGRGGSTYYADSVKGRFTISRDNAKNTVYLQMNSLKPEDTAVYYCADDSSRFYGRPRYYYWGQGTQVTVSS
[A] high polyreactivity

List reported polyreactivity (PSR sort gate) for each of these sequences:
1. QVQLVESGGGLVQAGGSLRLSCAASGSIFLGYTMGWYRPAPGKERELVAAISTRGGSTYYADSVKGRFTISRDNAKNTVYLQMNSLKPEDTAVYYCKARSRGRASGYDYWGQGTQVTVSS
2. QVQLVESGGGLVQAGGSLRLSCAASGRTFGGYAMGWYRQAPGKERELVAAISSSGTRTYYAESVKGRFTISRDNAKNTVYLQMNSLKPEDTAVYYCAAYRVIVWYAMDYWGQGTQVTVSS
3. QVQLVESVGGLVQAGGSLRLSSAASGRTFKGNAMGCYSQAHGKERELVAVITGSGGSTYYADSVKGRFTISRDNAKNTVYLQMNSLKPEDTAVYYCNKKLQRRSWYVYWGLGTQVTVSS
4. QVQLQESGGGLVQAGGSLRLSCAASGSIFDGFNMGWYRQAQGKEREFVAAISYGASTYYADSVKGRFTVSRDNAKNSVYLQMNSLKPEDTAVYYCAVYDELYHVLVYWGRGTQVTVSS
5. QVQLVESGGGLVQAGGSLRLSCAASGSIFGENAMGWYRQAPGKERELVASITESGVTTYYADSVKGRFTISRDNAKNTVYLQMNSLKPEDTAVYYFWGQGTQVTVSS
6. QVQLVESGGGLVQAGGSLRLSCSASGRIFGAYAMGWYRQAPGKERELVAAITSAGSAHYADYVKGRFTISRDNAKNTVYLQMNSLKPEDTAVYYCAADGIARAYVLFYAYDFLYDYWGQGTQVTVSS

[A]
1: high polyreactivity; 2: high polyreactivity; 3: low polyreactivity; 4: low polyreactivity; 5: low polyreactivity; 6: low polyreactivity

---

Test: yeast display, Sf9 membrane polyspecificity reagent, FACS + sequencing; frameworks hold sequencing errors
PROPERTY MEASURED: polyreactivity (PSR sort gate)

[Q] Give the reported polyreactivity (PSR sort gate) for this sequence. QVQLVESGGGLVQAGGSLRLSCAASGFTFFEDNAMGWYRQAPGKERELVAAITSGGSTNYADSVKGRFTFSRDNAKNTVYLQMNSLKPEDTAVYYCAKDRVPLKTRFYYFPWGYDYWGQGTQVTVSS
[A] low polyreactivity

[Q] Give the reported polyreactivity (PSR sort gate) for this sequence. QVQLVESGGGLVQAGGSLRLSCAASGYISNAMGWYRQAPGKERELVAAISRSGGSTYYADSVKGRFTISRDNAKNTVYLQMNSLKPEDTAVYYCAGDSTYHARRLDYWGQGTQVTVSS
[A] low polyreactivity

---

Experiment: yeast display, Sf9 membrane polyspecificity reagent, FACS + sequencing; frameworks hold sequencing errors
PROPERTY MEASURED: polyreactivity (PSR sort gate)

[Q] Give the reported polyreactivity (PSR sort gate) for this sequence. QVQLVESGGGLVKAGGSLRLSCAASGRTFGVYAMGWYRQAPGKEREFVAVISWSDDSTYYADSVKGRFTISRDNAKNTVYFQMNSLKPEDSAVYYCAAQTPYGMYYWRQGTQVTVSS
[A] low polyreactivity

[Q] Give the reported polyreactivity (PSR sort gate) for this sequence. QVQLVESGGGLVQAGGSLRLSCAASGRIFTNNAMGWYREAPGKERELVAAISKRGGSTYYADSVKGRFTISRDNAKNTVYLQMNSLKPEDTAVYYCNAREYIHWRGALGLFGSWGQGTQVTVSS
[A] high polyreactivity

[Q] Give the reported polyreactivity (PSR sort gate) for this sequence. QVQLVESGGGLVQAGGSLRLSCAASGRTFYIYAMGWYRQAPGKERELVAGITYSGGRTYYADSVKGRFTISRDNAKNTVYLQMNSLKPEDTAVYYCAARPYLTTEGPYNYWGQGTQVTVSS
[A] low polyreactivity

[Q] Give the reported polyreactivity (PSR sort gate) for this sequence. QVQLVESGGGLVQAGGSLRLSSAASGRTFIVYAMGWYRQQPGKERELVARISSGSRTSYADSVKGRFTISRDNAKNTVYLQMNSLKPEDTAVYYCAKSRVIKYEFDYWGQGTQVTVSS
[A] low polyreactivity

List reported polyreactivity (PSR sort gate) for each of these sequences:
1. QVQLVESGGGLVQAGGSLRLSCAASGSTFHYYAMGWYRQAPGKERELVAAISYSGGRTYYADSVKGRFTISRDNAKNTVYLQMNSLKPEDTAVYYCAARRSRTGRDESWGQGTQVTVSS
2. QVQLVESGGGLVQAGGSLRLSCAASGITFGRNTMGWYRQAPGNERELVAAIDSGGNTYADSVKGRFTISRDNAKNTFYLQMNSLKPEDTAVYYCCVDGGEFSSYGYWGQGTQVTVSS
3. QVQLVESGGGLVQAGGSLRLTCAASGSTIGGNPMVCYRHAPGKERELVAAITFSGGSTSYADSVKGRFTISRDNAKNTVYLQMNSLKPEDTAVYYCAASWVYPYDYWRQGTQVTVSS
4. QDQLVESGGGLVHAGGSLRLSCAASGSTFSIYAMGWYRQAPGKERELVAAIPYSGGSTYYADSVKGRFTISRDNAKNTVYLQMHSLKPEDTAVNYCAAEVYDSRWWYSGATDDYWGQGTQVSVSS

[A]
1: high polyreactivity; 2: low polyreactivity; 3: low polyreactivity; 4: high polyreactivity

List reported polyreactivity (PSR sort gate) for each of these sequences:
1. QVQLVESGGGLVQAGGSLRLSCAASGSIFKSNAMGWYRQAPGKERELVAGISWGGGSTYYADSVKGRFTISRDNAKNTVYLQMNSLKPEDTAVYYCAAYVYYRPSALAVTGDYYWGQGTQVTVSS
2. QGQLLESGGGLVQAGGSLRLSCAASGRTFRSYAMGWYRQAPGKESELVAASSQRGGSSFYADSVKGRFTISRDNAKNSVYLQMNSLKPEDTAVYYCANPVRSGYDYWGQGSQVTVSS
3. QVQLVESGGGLVQAGGSLRLSCAASGRIFLYYAMGWYRQAPGKERELVAGISTGGSTNYADSVKGRFTISRDNAKNTVYLQMNSLKPEDTAVYYCAVVDVEEHVGHWGQGTQVTVSS
4. QVQLVESGGGLVQAGGSLRLSCDASGRILIGYTMGWYRQAPGKERELVARINYSGGSTYYADSVKGRFTISRDNAKNTVYLQMNSLKPEDTAVYYCDADVRRGYYTWPPRRVYYWGQGTQVTVSS

[A]
["low polyreactivity", "high polyreactivity", "low polyreactivity", "high polyreactivity"]

List reported polyreactivity (PSR sort gate) for each of these sequences:
1. QVQLVESGGGLVQAGGSLRLSCAASGIIFDDNTMGWYRQAPGKERELVAAISSSGGSTYYADSVKGRFTISRDNAKNTVYLQMNSLKPEDTAVYYCAAAVYYTYPYIVYRNYPEFDYWGQGTQVTVSS
2. QVQLVESGGGLVQAGGSLRLSCDASGLIFVDNAMGWYRQAPGKERELVAAIDSGGSTNYADSVKGRFTISRDNAKNTVYLQMNSLKPEDTAVYYCAANTYYWWGIMDYWGPGTQVTVSS
3. QVQLVESGGGLVQAGGSLRLSCAASGRTFYSYAMGWYRQAPGKERELVAGITWSGTSTYYADSVKGRFTISRDNAKNTVYLQMNSLKPEDTAVYYCAAATLYSRYDYWGQGSQVTVSS
4. QVQLVESGGGLVQAGGSLRLSCAASGRIFERYAMGWYRQAPGKERELVAAISWSGGSTYYADSVKGRFTISRDNAKNTVYLQMNSLKPEDTAVYYCAARKYRSFRQRTGDYWGQGTQVTVSS
5. QVQLVESRGGLVQAGGSLRLSCAASGSNFTLYAMGWYRQAPGKERELGATITISGGGTYYADSVKGRFTISRDNAKNTVYLQMNSLKPEDTAVYYCAVKSIVRRKGYTYYRYDYWGQGTQVTVSS
6. QVQLVESGGGLVQAGGSLRLSCAASGNIFRNNAMGWYRQAPGKERELVAAISYSGGRTYYADSVKGRFTISRDNAKNTVYLQMNSLKPEDTAVYYCAVTYGRNADDYEYWGQGTQVTVSS
7. QVQLVESGGGLVQAGGSLRLSCAASGSILGQYTMGWYRQAPGKERELVAGISSGGSTNYADSVKGRFTISRDNAKNTVYLQMNSLKPEDTAVYYCNKDGAFHWVGSDPVYLFEYWGQGTQVTVSS

[A]
["low polyreactivity", "low polyreactivity", "low polyreactivity", "high polyreactivity", "high polyreactivity", "high polyreactivity", "low polyreactivity"]

List reported polyreactivity (PSR sort gate) for each of these sequences:
1. QVQLVESGGGLVQAGGSLRISCAASGRIFTRNAMGWYTQAPGNETELVAAITSGGSTNYADSVKGRFTISRDNAKNTVYLQMNSLKPEDTAVYFCYAVYYPYRIWGRVRPSYGYWGQGTQVTVSS
2. QVQLVESGGGLVQAGGSLRLSCAASGLIFVVYVMGWYRQAPGKERELVAAISGSGDSTYYADSVKGRFTISRDNAKNTVYLQMNSLKPEDTAVYYCNARSISRKKGYPPQRSDGYWGQGTQVTVSS

[A]
["high polyreactivity", "high polyreactivity"]
